Consider the following binders; for each one, report its koff.
- SYSTEM TESTED: T1, mouse PCSK9 (mouse, UniProt Q80W65 35-694, limits assumed)
- T1 construct: also called mPCSK9; msPCK9
- T1 sequence (Q80W65 35-694 limits assumed): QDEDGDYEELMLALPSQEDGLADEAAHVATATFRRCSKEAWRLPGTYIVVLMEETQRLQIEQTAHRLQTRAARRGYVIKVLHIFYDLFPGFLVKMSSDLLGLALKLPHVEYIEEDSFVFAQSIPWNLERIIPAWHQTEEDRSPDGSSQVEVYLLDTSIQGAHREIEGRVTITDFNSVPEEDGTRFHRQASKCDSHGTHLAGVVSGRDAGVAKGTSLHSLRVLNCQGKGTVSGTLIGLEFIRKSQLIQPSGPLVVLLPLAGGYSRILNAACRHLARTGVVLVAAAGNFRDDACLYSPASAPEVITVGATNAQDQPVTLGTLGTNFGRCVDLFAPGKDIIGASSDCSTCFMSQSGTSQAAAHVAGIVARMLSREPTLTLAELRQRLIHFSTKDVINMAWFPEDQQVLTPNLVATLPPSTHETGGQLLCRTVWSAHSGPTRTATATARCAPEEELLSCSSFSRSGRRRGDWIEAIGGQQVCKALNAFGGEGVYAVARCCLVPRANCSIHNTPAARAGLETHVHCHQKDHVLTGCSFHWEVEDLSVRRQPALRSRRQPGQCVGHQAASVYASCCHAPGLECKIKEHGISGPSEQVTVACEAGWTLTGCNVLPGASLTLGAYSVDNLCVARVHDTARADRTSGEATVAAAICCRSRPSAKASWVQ
- METHOD NOTES: SPR Biacore 3000, captured IgG, mPCSK9 injected, pH 7.4
Give bare numbers, in s⁻¹.

BINDER	TEST READOUT	ENDPOINT RESULT
5L1721H23_6H3 (antibody, V domains shown, Only CDRs printed; Full-length IgG) VH: QVQLVQSGAEVKKPGASVKVSCKASGYTFTSYYMHWVRQAPGQGLEWMGEIHPSGGRTNYNEKFKSRVTMTRDTSTSTVYMELSSLRSEDTAVYYCARERPLYASDLWGQGTTVTVSS VL: DIQMTQSPSSLSASVGDRVTITCKASQDVHTAVAWYQQKPGKAPKLLIYHASYRYTGVPSRFSGSGSGTDFTFTISSLQPEDIATYYCQQRYSTPRTFGQGTKLEIK	koff	0.000899
5L1721H23_6L3 (antibody, V domains shown, Tested as full-length IgG; also called heavy UC-H5H23, light UC-H5L1721-6L3) VH: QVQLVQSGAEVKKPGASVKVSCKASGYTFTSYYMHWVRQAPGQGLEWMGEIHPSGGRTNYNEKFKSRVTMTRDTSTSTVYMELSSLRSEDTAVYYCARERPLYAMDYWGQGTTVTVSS VL: DIQMTQSPSSLSASVGDRVTITCKASQDVHTAVAWYQQKPGKAPKLLIYHASYRYTGVPSRFSGSGSGTDFTFTISSLQPEDIATYYCQQRYSLWRTFGQGTKLEIK	koff	0.000676
5L1724H23_6L3 (antibody, V domains shown, Only CDRs printed; Full-length IgG) VH: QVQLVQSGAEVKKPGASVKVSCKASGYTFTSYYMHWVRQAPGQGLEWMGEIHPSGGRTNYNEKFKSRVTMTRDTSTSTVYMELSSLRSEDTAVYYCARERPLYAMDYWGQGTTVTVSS VL: DIQMTQSPSSLSASVGDRVTITCKASQDVHTAVAWYQQKPGKAPKLLIYSASHRYTGVPSRFSGSGSGTDFTFTISSLQPEDIATYYCQQRYSLWRTFGQGTKLEIK	koff	0.00218

Provide koff for all items below, preserving their order.
1. 5L1724H23_6L3H3 (antibody, V domains shown, Only CDRs printed; Full-length IgG) VH: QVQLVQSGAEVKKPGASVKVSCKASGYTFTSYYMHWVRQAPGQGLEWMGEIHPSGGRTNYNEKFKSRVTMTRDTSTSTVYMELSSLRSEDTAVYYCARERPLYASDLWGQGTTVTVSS VL: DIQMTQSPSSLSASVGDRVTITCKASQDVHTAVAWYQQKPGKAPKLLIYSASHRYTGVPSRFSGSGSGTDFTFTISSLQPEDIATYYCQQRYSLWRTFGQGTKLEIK
2. 5L1721H23 (antibody, V domains shown, Triple histidine mutant of h5A10; Only CDRs printed; Full-length IgG) VH: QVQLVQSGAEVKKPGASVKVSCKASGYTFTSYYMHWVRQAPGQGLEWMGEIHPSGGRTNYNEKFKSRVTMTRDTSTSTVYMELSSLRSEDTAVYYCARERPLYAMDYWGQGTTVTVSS VL: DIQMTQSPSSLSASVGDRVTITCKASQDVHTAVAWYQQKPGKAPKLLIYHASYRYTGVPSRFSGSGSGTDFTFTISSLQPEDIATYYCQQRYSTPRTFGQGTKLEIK

a:
[0.000827, 0.00141]

Respectfully, I request koff for each entry included below.
1. 6L1721H23 (antibody, V domains shown, L1L3-based mutant; Full-length IgG) VH: QVQLVQSGAEVKKPGASVKVSCKASGYTFTSYYMHWVRQAPGQGLEWMGEIHPFGGRTNYNEKFKSRVTMTRDTSTSTVYMELSSLRSEDTAVYYCARERPLYASDLWGQGTTVTVSS VL: DIQMTQSPSSLSASVGDRVTITCRASQGIHSALAWYQQKPGKAPKLLIYHASYRYTGVPSRFSGSGSGTDFTFTISSLQPEDIATYYCQQRYSLWRTFGQGTKLEIK
2. 6L1721 (antibody, V domains shown, L1L3-based mutant; Tested as full-length IgG) VH: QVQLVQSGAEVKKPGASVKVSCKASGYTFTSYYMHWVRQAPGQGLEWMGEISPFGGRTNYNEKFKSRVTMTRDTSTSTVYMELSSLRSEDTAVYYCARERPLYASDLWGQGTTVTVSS VL: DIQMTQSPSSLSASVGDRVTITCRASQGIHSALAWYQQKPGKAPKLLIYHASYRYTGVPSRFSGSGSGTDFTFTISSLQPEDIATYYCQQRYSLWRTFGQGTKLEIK

a:
1: 0.000469; 2: 0.000228
